These data points were gathered from patent US20080219974A1.

Field: koff. Provide a value for each of the binders that follow.
Biological target: T1, His-tagged HM1.24 antigen, residues N49-A163 of the extracellular domain (UniProt Q10589 49-163)
T1 chain: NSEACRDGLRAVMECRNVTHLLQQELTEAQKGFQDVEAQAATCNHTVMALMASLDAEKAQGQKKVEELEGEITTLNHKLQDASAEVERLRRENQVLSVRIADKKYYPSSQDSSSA
Assay: Biacore
Field format: number, assumed s⁻¹, no unit text.

Determine its reported koff: HM1.24_H1.4 heavy chain variant with HM1.24_L4 light chain (antibody, V domains shown) VH: QVQLVQSGAEVKKPGASVKVSCKASGYTFTPYWMQWVRQAPGQGLEWMGSIFPGDADTRYSQSFQGQVTISADKSISTAYMELSRLRSDDTAVYYCARGLRRGGYYFDYWGQGTLVTVSS VL: DIVMTQSPLSLPVTLGQPASISCKASQDVNTAVAWYLQKPGKSPKLLIYSASNRYTGVPDRITGSGSGTDFTLKISRVEAEDVGVYYCQQHYSTPFTFGSGTKLEIKR
0.00298

Determine its reported koff: HM1.24_H1.1_L2_Hybrid_S239D/I332E (antibody, V domains shown) VH: QVQLVQSGAEVKKPGASVKVSCKASGYTFTPYWMQWVRQAPGQGLEWMGSIFPGEGDTRYSQSFQGQVTISADKSISTAYMELSRLRSDDTAVYYCARGLRRGGYYFDYWGQGTLVTVSS VL: DIVMTQSPSSLSASVGDRVTITCQASQDVNTAVAWYQQKPDQSPKLLIYSASNRYTGVPDRITGSGSGTDFTLTISSLQAEDVAVYYCQQHYSTPFTFGSGTKLEIKR
0.00206

Determine its reported koff: HM1.24_H1L2 (antibody, V domains shown) VH: QVQLVQSGAEVKKPGASVKVSCKASGYTFTPYWMQWVRQAPGQGLEWMGSIFPGDGDTRYSQSFQGQVTISADKSISTAYMELSRLRSDDTAVYYCARGLRRGGYYFDYWGQGTLVTVSS VL: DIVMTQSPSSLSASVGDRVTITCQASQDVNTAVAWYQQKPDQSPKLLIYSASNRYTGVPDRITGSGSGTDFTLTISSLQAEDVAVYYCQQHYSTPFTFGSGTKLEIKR
0.00241
